- ASSAY_EXPLANATION: small-molecule binders of probe aNOTCH3, primary screen, biochemical, small-molecule microarray, 635/667 nm fluorescence (AID 1120);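 further: probe is a biotin-tagged antibody raised against NOTCH3 rather than NOTCH3 protein; score merges spot fluorescence near 667 nm with spot signal to noise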
- CONDITION_INFO: higher = more signal
Is composite z-score at least 0.1? Then true. If not, false.

molecule=COC(=O)[C@@]1(Cc2ccccc2)[C@H]2c3cc(C(=O)N4CCCC4)[nH]c3C[C@H]2CN1C(=O)c1ccccc1 class=false
molecule=C=CCOC(=O)[C@@H]1[C@H]2C(=O)O[C@H](c3ccccc3)[C@H](c3ccccc3)N2[C@H](c2ccc(OCCOC(=O)[C@H]3C[C@H]4C(=O)N[C@@H](CC(C)C)C(=O)N4[C@H]3c3ccc(O)cc3)cc2)[C@@]12C(=O)Nc1ccc(I)cc12 class=true
molecule=CCOC(=O)C1=C[C@@H](c2ccccc2)N(S(=O)(=O)c2ccc(C)cc2)[C@H]1c1cccc(Cl)c1 class=true
molecule=C=CC[C@@]1(C(=O)O)N=C(c2ccc(OCCCO)cc2)O[C@@H]1c1ccccc1 class=false
molecule="CC=CC(O)C1C=CC2C(=O)N(c3ccccc3)C(=O)C2N1Nc1ccc([N+](=O)[O-])cc1 (stereo not given)" class=false
molecule="O=C1OCC=C[C@H]2OC34C=CCN(c5ccc(Cl)cc5)C(=O)[C@H]3N(CCCCCO)C(=O)[C@@H]4[C@@H]12 (stereo not given in full)" class=false
molecule=[N-]=[N+]=Nc1ccccc1[C@H]1OC(c2ccc(OCCCO)cc2)=N[C@@]1(CCS(=O)(=O)c1ccccc1)C(=O)N1CCCCC1 class=true
molecule=COCCCNC(=O)[C@@]1(Sc2ccc(C)cc2)CC(=O)N(C2Cc3ccccc3C2)[C@@H]1c1ccc(CO)cc1I class=false
molecule=O=C(O)[C@]1(Cc2ccccc2)N=C(c2ccc(OCCCO)cc2)O[C@@H]1c1ccccc1 class=false
molecule=COC(=O)Cn1c(C(=O)N2CCCC2)cc2c1C[C@H]1CN(C(=O)c3ccccc3)[C@@](Cc3ccc(F)cc3)(C(=O)OC)[C@@H]21 class=false
molecule=O=C(O)[C@H](Cc1ccccc1)n1cc(-c2ccccn2)nn1 class=false
molecule=COc1ccccc1CN1C(=O)c2ccccc2[C@@H](C(=O)NC(C)C)[C@@H]1c1ccc(CO)cc1 class=true
molecule=Cc1ccc(S[C@]2(C(=O)NCC(F)(F)F)CC(=O)N(Cc3ccccc3)[C@@H]2c2ccc(CO)cc2)cc1 class=false
molecule=COC(=O)C(CC#Cc1ccc2c(c1)[C@]1(C(=O)N2)[C@H](C(=O)O)[C@H]2C(=O)O[C@H](c3ccccc3)[C@H](c3ccccc3)N2[C@@H]1c1ccccc1OCCO)C(=O)OC class=true

----------
- Test system: glycogen synthase kinase-3 (GSK3A per assay name; protocol says GSK3B)
- ASSAY_EXPLANATION: GSK3 binders on small-molecule microarrays, primary screen, biochemical, small-molecule microarray, 635 nm fluorescence, GSK3A (AID 1103); further: the record names both GSK3A and GSK3B
- CONDITION_INFO: small-molecule microarray binding, fluorescence 635 nm; higher = more signal
MEASURE: composite z-score

molecule="COC1(C)CN(Cc2ccccc2Br)[C@H](/C=C/c2ccccc2)[C@H](Cc2ccccc2)O1 (some centres undefined)" test_value=-0.629
molecule=COc1ccc([Si](C)(C)[C@H]2[C@H](CC(=O)N3Cc4ccccc4C[C@H]3CO)O[C@@]3(C(=O)N(Cc4cccc(N5CCCCC5=O)c4)c4ccccc43)[C@@H]2C)cc1 test_value=0.262
molecule=Cc1ccc(S[C@]2(C(=O)NC(C)C)CC(=O)N(Cc3ccccc3C(F)(F)F)[C@@H]2c2ccc(CO)cc2I)cc1 test_value=-1.1
molecule=NCCCCCNC(=O)[C@@H]1C[C@@H]2C(=O)N[C@@H](CCCCN)C(=O)N2[C@@H]1c1cccc(OCCO)c1 test_value=0.642

----------
- ASSAY_EXPLANATION: small-molecule microarray binders of probe aShh, primary screen, biochemical, biotinylated probe, 635/667 nm fluorescence (AID 1114);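 further: probe is biotin-labelled aShh protein from a stem cell growth factor screen; measures binding of labelled protein to compounds printed on the slide; score merges feature fluorescence at 667 nm with signal-to-noise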
- CONDITION_INFO: higher = more signal
If the reported composite z-score equals or exceeds 0.3, assign satisfied. If not, assign not satisfied.

compound="COc1cc2c(cc1O)C(C)N(Cc1cc3c(cc1Br)OCO3)CC2 (stereo not drawn)" class="not satisfied"
compound=[N-]=[N+]=Nc1ccccc1C[C@]1(C(=O)NCc2ccccc2)N=C(c2ccc(OCCCO)cc2)O[C@H]1c1ccccc1 class="not satisfied"
compound="CC(C)c1ccc(NN2C(C(O)c3ccco3)C=CC3C(=O)N(c4ccccc4)C(=O)C32)cc1 (stereo not drawn)" class="not satisfied"
compound=COCCOC(=O)N1C(=O)[C@@]2(c3cc(C#CC4(O)CCCCCC4)ccc31)[C@H](c1ccccc1OCCO)N1[C@H](c3ccccc3)[C@H](c3ccccc3)OC(=O)[C@H]1[C@@H]2C(N)=O class=satisfied
compound="CC(=O)n1cc(C(O)C2C=CC3C(=O)N(c4ccccc4)C(=O)C3N2Nc2ccccc2)c2ccccc21 (stereo not drawn)" class=satisfied
compound="COc1cc(OC)c(C(O)C2C=CC3C(=O)N(c4ccccc4)C(=O)C3N2Nc2ccc(C#N)cc2)cc1Br (stereo not drawn)" class="not satisfied"
compound=CC(C)C(=C=CC[C@H](O)c1ccc(OCCO)cc1)C[C@H](O)c1cc(Cl)cc(Cl)c1O class="not satisfied"
compound="C[C@@H](OCc1ccccc1)C1NC(=O)[C@@]23C(=O)N[C@@H](Cc4ccccc4)C2[C@H](C)[C@@]2(C)O[C@H]2C3/C=C/C/C=C\\CNC(=O)CNC1=O (stereo partly drawn)" class="not satisfied"

----------
Listing: z-score of selected molecules
- TARGET_OR_SYSTEM: Luciferin 4-monooxygenase (Photinus pyralis) (UniProt P08659)
- Sequence (P08659 whole entry, looked up): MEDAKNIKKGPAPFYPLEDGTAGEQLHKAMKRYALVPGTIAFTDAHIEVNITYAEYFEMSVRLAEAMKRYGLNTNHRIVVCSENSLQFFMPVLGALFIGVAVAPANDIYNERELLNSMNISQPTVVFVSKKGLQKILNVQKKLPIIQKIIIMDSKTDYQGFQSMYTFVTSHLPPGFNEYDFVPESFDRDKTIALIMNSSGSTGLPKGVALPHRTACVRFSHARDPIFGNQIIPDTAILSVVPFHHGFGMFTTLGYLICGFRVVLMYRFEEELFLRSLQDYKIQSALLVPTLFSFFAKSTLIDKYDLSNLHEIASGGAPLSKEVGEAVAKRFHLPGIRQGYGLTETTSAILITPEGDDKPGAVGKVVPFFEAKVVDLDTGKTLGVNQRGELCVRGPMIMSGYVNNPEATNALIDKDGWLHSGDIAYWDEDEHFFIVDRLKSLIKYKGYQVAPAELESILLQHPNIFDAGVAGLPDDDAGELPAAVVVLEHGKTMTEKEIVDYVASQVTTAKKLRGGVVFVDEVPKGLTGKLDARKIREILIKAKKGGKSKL
- ASSAY_EXPLANATION: firefly luciferase enzyme inhibitors, primary screen, biochemical, luminescence, purified enzyme, 2006 set (AID 1141);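 further: cell-free assay with purified firefly luciferase at 100 ng per well in PBS; test concentration not given here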
- CONDITION_INFO: SteadyGlo luminescence, 30 min, higher = more signal, called active from +8 up or from −8 down
Activity calls are given as the source filed them.
MEASURE: z-score

molecule=C=C(/C(=C/C[C@@H](OC(=O)c1ccncc1)c1ccccc1OCCO)c1cc(C(=O)OC)ccc1OC)C(C)C target_or_system="Luciferin 4-monooxygenase (Photinus pyralis) (UniProt P08659)" test_value="-1.47 (inactive)"
molecule=COC(=O)[C@]1(CCS(=O)(=O)c2ccccc2)N=C(c2ccc(OCCCO)cc2)O[C@@H]1c1ccccc1CN=[N+]=[N-] target_or_system="Luciferin 4-monooxygenase (Photinus pyralis) (UniProt P08659)" test_value="-0.587 (inactive)"
molecule=C=CCOC(=O)[C@H]1[C@@H]2C(=O)O[C@@H](c3ccccc3)[C@@H](c3ccccc3)N2[C@@H](c2ccc(OCCOC(=O)[C@H]3C[C@H]4C(=O)N[C@@H](CCCC[N+](C)(C)C)C(=O)N4[C@H]3c3cccc(OCCO)c3)cc2)[C@]12C(=O)Nc1ccc(I)cc12 target_or_system="Luciferin 4-monooxygenase (Photinus pyralis) (UniProt P08659)" test_value="-0.678 (inactive)"
molecule=COc1ccc([Si](C)(C)[C@H]2[C@H](CCn3cc([C@H](O)c4ccccc4)nn3)O[C@@]3(C(=O)N(Cc4cccc(N5C(=O)c6cccc7cccc5c67)c4)c4ccccc43)[C@@H]2C)cc1 target_or_system="Luciferin 4-monooxygenase (Photinus pyralis) (UniProt P08659)" test_value="0.119 (inactive)"
molecule=COCC(=C=CC[C@H](O)c1ccc(OCCO)cc1)C[C@H](O)COCc1ccccc1 target_or_system="Luciferin 4-monooxygenase (Photinus pyralis) (UniProt P08659)" test_value="-0.627 (inactive)"
molecule="CC[C@@H]1[C@H]2C3C(=O)N(CC)C(=O)C3CC(=O)[C@H]2[C@H](c2ccc(C)cc2)N1S(=O)(=O)c1ccc(C)cc1 (some centres undefined)" target_or_system="Luciferin 4-monooxygenase (Photinus pyralis) (UniProt P08659)" test_value="0.497 (inactive)"
molecule=C=CC[C@@H](OC(=O)Nc1ccc(OC)cc1)c1ccc(OCCO)cc1 target_or_system="Luciferin 4-monooxygenase (Photinus pyralis) (UniProt P08659)" test_value="-5.18 (inactive)"
molecule=COC(=O)[C@@]1(Cc2ccc(OC)cc2)[C@H]2c3cc(C(=O)N(C)C)n(Cc4ccccc4)c3C[C@H]2CN1C(=O)c1ccccc1 target_or_system="Luciferin 4-monooxygenase (Photinus pyralis) (UniProt P08659)" test_value="0.84 (inactive)"
molecule=C=CC[C@@]12N=C(c3ccc(OCCCO)cc3)O[C@@H]1c1ccccc1N(CCS(=O)(=O)c1ccccc1)C2=O target_or_system="Luciferin 4-monooxygenase (Photinus pyralis) (UniProt P08659)" test_value="-12.1 (active)"
molecule=CCOC(=O)[C@H]1C/C=C/C[C@H](C(=O)OCC)C(=O)O[C@H]2[C@@H](OC)O[C@H](CO)[C@@H](OC(=O)CCc3ccccc3)[C@@H]2OC1=O target_or_system="Luciferin 4-monooxygenase (Photinus pyralis) (UniProt P08659)" test_value="0.418 (inactive)"
molecule=C=C(C(=O)CC[C@H](OC(C)=O)c1cccc(OCCO)c1)C(C)C target_or_system="Luciferin 4-monooxygenase (Photinus pyralis) (UniProt P08659)" test_value="-0.0654 (inactive)"
molecule="C=CCC(OC(C)=O)[C@@H]1[C@@H](N(Cc2cc3ccccc3o2)C(=O)c2ccc(C)cc2)c2cc(OCCCO)ccc2N1C(=O)Cc1ccc2ccccc2c1 (some centres undefined)" target_or_system="Luciferin 4-monooxygenase (Photinus pyralis) (UniProt P08659)" test_value="-1.72 (inactive)"
molecule="COc1cc2c(cc1O)C(C)N(Cc1cc3c(cc1Br)OCO3)CC2 (centres undefined)" target_or_system="Luciferin 4-monooxygenase (Photinus pyralis) (UniProt P08659)" test_value="-0.499 (inactive)"
molecule="COc1ccc(NN2C(C(O)c3ccco3)C=CC3C(=O)N(C4CCCCC4)C(=O)C32)cc1 (centres undefined)" target_or_system="Luciferin 4-monooxygenase (Photinus pyralis) (UniProt P08659)" test_value="-0.358 (inactive)"
